Tested on: 786-0 complex spheroids with HUVEC/MSC, growth % test/control
Experiment: Anticancer human tumor 786-0 cell line growth inhibition [AhR];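 also: compound exposure lasted seven days before the read-out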
Settings: curve of first compound; second compound 10 µM
pIC50: −log10 of the molar value.
The entries below are paired with their reported pIC50.

{"COMPOUND": "O=C(C=Cn1cnc(-c2cc(C(F)(F)F)cc(C(F)(F)F)c2)n1)NNc1cnccn1 + Cc1cncc(-c2nc(NCCc3c[nH]c4ccccc34)c3ncn(C(C)C)c3n2)c1", "COMPARISON_OPERATOR": ">", "pIC50": 8.02}
{"COMPOUND": "CC1COCCN1c1cc(-c2ccnn2C)c2ccnc(-c3ccn[nH]3)c2n1 (stereo not given) + Cc1ccccc1N=Nc1ccc(NC(=O)c2ccnn2C)c(C)c1", "COMPARISON_OPERATOR": "=", "pIC50": 6.81}
{"COMPOUND": "O=C(C=Cn1cnc(-c2cc(C(F)(F)F)cc(C(F)(F)F)c2)n1)NNc1cnccn1 + CC(CO)NC(=O)c1cc(-c2ccc(Cl)cc2)nn(-c2cnn(C)c2)c1=O", "COMPARISON_OPERATOR": "=", "pIC50": 6.56}
{"COMPOUND": "COc1cccc2c1C(=O)c1c(O)c3c(c(O)c1C2=O)CC(O)(C(=O)CO)CC3OC1CC(N)C(O)C(C)O1 (stereo not given) + Cc1cncc(-c2nc(NCCc3c[nH]c4ccccc34)c3ncn(C(C)C)c3n2)c1", "COMPARISON_OPERATOR": ">", "pIC50": 7.50}
{"COMPOUND": "CC1(C)CCC(CN2CCN(c3ccc(C(=O)NS(=O)(=O)c4ccc(NCC5CCOCC5)c([N+](=O)[O-])c4)c(Oc4cnc5[nH]ccc5c4)c3)CC2)=C(c2ccc(Cl)cc2)C1 + CC(CO)NC(=O)c1cc(-c2ccc(Cl)cc2)nn(-c2cnn(C)c2)c1=O", "COMPARISON_OPERATOR": "<", "pIC50": 5.00}

---

Test system: 786-0 complex spheroids with HUVEC/MSC, growth % test/control
Test: Anticancer human tumor 786-0 cell line growth inhibition [AhR];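 also: compound exposure lasted seven days before the read-out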
Conditions: curve of first compound; second compound 10 µM

{"MOLECULE": "Cn1ncnc1C1c2n[nH]c(=O)c3cc(F)cc(c23)NC1c1ccc(F)cc1 (stereo unspecified) + Cc1cncc(-c2nc(NCCc3c[nH]c4ccccc34)c3ncn(C(C)C)c3n2)c1", "IC50": "< 0.000316 µM"}
{"MOLECULE": "COc1ccc([C@@H](O)c2cc(-c3ncnc4cc(N5CCOCC5)ccc34)c(F)cc2Cl)nn1 + Cc1cncc(-c2nc(NCCc3c[nH]c4ccccc34)c3ncn(C(C)C)c3n2)c1", "IC50": "< 0.0316 µM"}
{"MOLECULE": "CC(C)c1c(-c2ccccc2)nc2c(C#N)c[nH]n2c1=O + CC(CO)NC(=O)c1cc(-c2ccc(Cl)cc2)nn(-c2cnn(C)c2)c1=O", "IC50": "> 10 µM"}
{"MOLECULE": "Nc1ccn(C2OC(CO)C(O)C2(F)F)c(=O)n1 (stereo unspecified) + Cc1cncc(-c2nc(NCCc3c[nH]c4ccccc34)c3ncn(C(C)C)c3n2)c1", "IC50": "< 0.0316 µM"}
{"MOLECULE": "Nc1ncn(C2CC(O)C(CO)S2)c(=O)n1 (stereo unspecified) + Cc1ccccc1N=Nc1ccc(NC(=O)c2ccnn2C)c(C)c1", "IC50": "> 0.3 µM"}
{"MOLECULE": "COc1cc(Nc2ncc3c(n2)-c2ccc(Cl)cc2C(c2c(F)cccc2OC)=NC3)ccc1C(=O)O + Cc1cncc(-c2nc(NCCc3c[nH]c4ccccc34)c3ncn(C(C)C)c3n2)c1", "IC50": "< 0.0316 µM"}

---

Tested on: 786-0 complex spheroids with HUVEC/MSC, growth % test/control
Assay: Anticancer human tumor 786-0 cell line growth inhibition [AhR];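 also: compound exposure lasted seven days before the read-out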
Conditions: second compound 1 µM; first compound 0.0316 µM; stronger effect = lower value

{"COMPOUND": "COc1cc(C2c3cc4c(cc3C(OC3OC5COC(C)OC5C(O)C3O)C3COC(=O)C23)OCO4)cc(OC)c1O (stereo not drawn) + Cc1cncc(-c2nc(NCCc3c[nH]c4ccccc34)c3ncn(C(C)C)c3n2)c1", "TESTED_SYSTEM": "786-0 complex spheroids with HUVEC/MSC, growth % test/control", "viability, T/C, %": 107}
{"COMPOUND": "Nc1ccn(C2OC(CO)C(O)C2(F)F)c(=O)n1 (stereo not drawn) + Cc1cncc(-c2nc(NCCc3c[nH]c4ccccc34)c3ncn(C(C)C)c3n2)c1", "TESTED_SYSTEM": "786-0 complex spheroids with HUVEC/MSC, growth % test/control", "viability, T/C, %": 6.44}
{"COMPOUND": "CC(C)c1c(-c2ccccc2)nc2c(C#N)c[nH]n2c1=O + CC(CO)NC(=O)c1cc(-c2ccc(Cl)cc2)nn(-c2cnn(C)c2)c1=O", "TESTED_SYSTEM": "786-0 complex spheroids with HUVEC/MSC, growth % test/control", "viability, T/C, %": 99.9}

---

The entries below are paired with their reported viability, T/C.
Test system: 786-0 complex spheroids with HUVEC/MSC, growth % test/control
Test: Anticancer human tumor 786-0 cell line growth inhibition [AhR];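 also: compound exposure lasted seven days before the read-out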
Settings: second compound 0.316 µM; first compound 3.16 µM; stronger effect = lower value

{"COMPOUND": "Nc1ccn(C2OC(CO)C(O)C2(F)F)c(=O)n1 (stereo not given) + Cc1ccccc1N=Nc1ccc(NC(=O)c2ccnn2C)c(C)c1", "viability, T/C [%]": 7.54}
{"COMPOUND": "COc1cccc2c1C(=O)c1c(O)c3c(c(O)c1C2=O)CC(O)(C(=O)CO)CC3OC1CC(N)C(O)C(C)O1 (stereo not given) + Cc1cncc(-c2nc(NCCc3c[nH]c4ccccc34)c3ncn(C(C)C)c3n2)c1", "viability, T/C [%]": 0.45}
{"COMPOUND": "Nc1ccccc1NC(=O)c1ccc(CNC(=O)OCc2cccnc2)cc1 + CC(CO)NC(=O)c1cc(-c2ccc(Cl)cc2)nn(-c2cnn(C)c2)c1=O", "viability, T/C [%]": 76.7}
{"COMPOUND": "CC1(C)CCC(CN2CCN(c3ccc(C(=O)NS(=O)(=O)c4ccc(NCC5CCOCC5)c([N+](=O)[O-])c4)c(Oc4cnc5[nH]ccc5c4)c3)CC2)=C(c2ccc(Cl)cc2)C1 + Cc1ccccc1N=Nc1ccc(NC(=O)c2ccnn2C)c(C)c1", "viability, T/C [%]": 97.8}
{"COMPOUND": "COc1cc(Nc2ncc3c(n2)-c2ccc(Cl)cc2C(c2c(F)cccc2OC)=NC3)ccc1C(=O)O + Cc1cncc(-c2nc(NCCc3c[nH]c4ccccc34)c3ncn(C(C)C)c3n2)c1", "viability, T/C [%]": 69}

---

Tested on: 786-0 complex spheroids with HUVEC/MSC, growth % test/control
Experiment: Anticancer human tumor 786-0 cell line growth inhibition [AhR];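 also: compound exposure lasted seven days before the read-out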
Conditions: second compound 0.1 µM; first compound 1 µM; stronger effect = lower value

{"COMPOUND": "COc1cc(C2c3cc4c(cc3C(OC3OC5COC(C)OC5C(O)C3O)C3COC(=O)C23)OCO4)cc(OC)c1O (centres undefined) + Cc1cncc(-c2nc(NCCc3c[nH]c4ccccc34)c3ncn(C(C)C)c3n2)c1", "U": "%", "viability, T/C": 49.9}
{"COMPOUND": "CC1COCCN1c1cc(-c2ccnn2C)c2ccnc(-c3ccn[nH]3)c2n1 (centres undefined) + CC(CO)NC(=O)c1cc(-c2ccc(Cl)cc2)nn(-c2cnn(C)c2)c1=O", "U": "%", "viability, T/C": 3.76}
{"COMPOUND": "COc1cccc2c1C(=O)c1c(O)c3c(c(O)c1C2=O)CC(O)(C(=O)CO)CC3OC1CC(N)C(O)C(C)O1 (centres undefined) + Cc1cncc(-c2nc(NCCc3c[nH]c4ccccc34)c3ncn(C(C)C)c3n2)c1", "U": "%", "viability, T/C": 8.19}
{"COMPOUND": "COc1ccc([C@@H](O)c2cc(-c3ncnc4cc(N5CCOCC5)ccc34)c(F)cc2Cl)nn1 + Cc1cncc(-c2nc(NCCc3c[nH]c4ccccc34)c3ncn(C(C)C)c3n2)c1", "U": "%", "viability, T/C": 112}

---

Test system: 786-0 complex spheroids with HUVEC/MSC, growth % test/control
Test: Anticancer human tumor 786-0 cell line growth inhibition [AhR];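 also: compound exposure lasted seven days before the read-out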
Details: second compound 3.16 µM; first compound 1 µM; stronger effect = lower value
The entries below are paired with their reported viability, T/C.

{"COMPOUND": "COc1cc(C2c3cc4c(cc3C(OC3OC5COC(C)OC5C(O)C3O)C3COC(=O)C23)OCO4)cc(OC)c1O (stereo unspecified) + CC(CO)NC(=O)c1cc(-c2ccc(Cl)cc2)nn(-c2cnn(C)c2)c1=O", "U": "%", "viability, T/C": 24.4}
{"COMPOUND": "CC1COCCN1c1cc(-c2ccnn2C)c2ccnc(-c3ccn[nH]3)c2n1 (stereo unspecified) + Cc1cncc(-c2nc(NCCc3c[nH]c4ccccc34)c3ncn(C(C)C)c3n2)c1", "U": "%", "viability, T/C": 2.86}
{"COMPOUND": "CC(C)c1c(-c2ccccc2)nc2c(C#N)c[nH]n2c1=O + CC(CO)NC(=O)c1cc(-c2ccc(Cl)cc2)nn(-c2cnn(C)c2)c1=O", "U": "%", "viability, T/C": 99.5}
{"COMPOUND": "COc1cc(Nc2ncc3c(n2)-c2ccc(Cl)cc2C(c2c(F)cccc2OC)=NC3)ccc1C(=O)O + Cc1cncc(-c2nc(NCCc3c[nH]c4ccccc34)c3ncn(C(C)C)c3n2)c1", "U": "%", "viability, T/C": 92.3}
{"COMPOUND": "Nc1ncn(C2CC(O)C(CO)O2)c(=O)n1 (stereo unspecified) + Cc1ccccc1N=Nc1ccc(NC(=O)c2ccnn2C)c(C)c1", "U": "%", "viability, T/C": 89.7}
{"COMPOUND": "COc1ccc([C@@H](O)c2cc(-c3ncnc4cc(N5CCOCC5)ccc34)c(F)cc2Cl)nn1 + Cc1ccccc1N=Nc1ccc(NC(=O)c2ccnn2C)c(C)c1", "U": "%", "viability, T/C": 84.1}
